The measurements presented in this section are drawn from patent US9493455B2.

tested on: HUVEC; assay: In vitro cell proliferation assay (MTT); format: cell-based; settings: Homo sapiens, 72 h
pEC50: −log10 of the molar value.
This listing pairs compounds with measured pEC50.

1. COC(=O)c1cc2cc(NCc3cccc(C(=O)Nc4ccc(CN5CCN(C)CC5)c(C(F)(F)F)c4)c3)cnc2[nH]1	6.00 to 7.00
2. COC(=O)c1cc2cc(NCc3cc(NC(=O)c4ccnc(C(F)(F)F)c4)ccc3C)cnc2[nH]1	6.00 to 7.00
3. COC(=O)c1cc2cc(NC(=O)c3cccc(CNC(=S)c4cccc(C(F)(F)F)c4)c3)cnc2[nH]1	≤ 6.00

Exercise: Identify measured pEC50 corresponding to COC(=O)c1cc2cc(NC(=O)c3cc(NC(=O)c4ccc(CN5CCN(C)CC5)c(C(F)(F)F)c4)ccc3C)cnc2[nH]1
Solution: 6.00 to 7.00

Exercise: Identify measured pEC50 corresponding to C#Cc1cccc(Nc2ncnc3cc(OCCOC)c(OCCOC)cc23)c1 [Erlotinib, reference compound]
Solution: ≤ 6.00

Exercise: Identify measured pEC50 corresponding to COC(=O)c1cc2cc(NCc3cc(NC(=O)c4ccc(CNCCN5CCN(C)CC5)c(C(F)(F)F)c4)ccc3C)cnc2[nH]1
Solution: 6.00 to 7.00

Exercise: Identify measured pEC50 corresponding to COC(=O)c1cc2cc(NCc3cc(NC(=O)c4cc[nH]c4)ccc3C)cnc2[nH]1
Solution: ≤ 6.00
